Parameter IC50: see the listing below.
Target: human Y4 receptor (human, UniProt P50391 1-375)
Sequence (P50391 whole entry): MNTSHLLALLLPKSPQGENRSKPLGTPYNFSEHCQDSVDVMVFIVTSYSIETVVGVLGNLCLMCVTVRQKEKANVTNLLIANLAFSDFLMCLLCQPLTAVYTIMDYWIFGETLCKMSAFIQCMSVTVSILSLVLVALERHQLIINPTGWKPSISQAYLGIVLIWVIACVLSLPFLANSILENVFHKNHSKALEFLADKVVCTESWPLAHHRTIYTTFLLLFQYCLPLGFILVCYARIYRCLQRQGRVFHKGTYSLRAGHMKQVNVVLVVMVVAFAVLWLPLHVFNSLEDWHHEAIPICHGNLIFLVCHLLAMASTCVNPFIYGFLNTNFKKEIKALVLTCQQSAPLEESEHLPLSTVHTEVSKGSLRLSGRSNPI
Assay: 125I-PP displacement
Give just the numeric value; pM need not be written.

Would you please look over these solved cases?
{"binder": "AAPLEPFYPGDDATPQQMAHYAAELRRYINMLTRPRY [7144]", "unit.label": "pM", "IC50": 216}
{"binder": "APLEPVYPGDNATPEELVKYYSALRRYINMLTRHRY [7113]", "unit.label": "pM", "IC50": 84}

From here, focus on the item given below.
Exercise: Which IC50 value is on record for APLEPVYPGDNATPEQNLAHYAAELRRYINMLTRPRY [7164] ?
Solution: 223
